Here the recorded pEC50 is given for each entry.
# measured-target: UniProt:Q92633
# run-description: Beta-Arrestin based assay for human LPA1R antagonists (PathHunter)
# condition-summary: CHO cells expressing ProLink tagged human LPA1R; antagonist mode, 0.5 micromolar LPA
pEC50: −log10 of the molar value.

Value of pEC50 reported for the compound Cc1nsc(-c2cc(F)c(-c3ccc(C4(C(=O)O)CCOCC4)cc3)cc2F)c1NC(=O)O[C@H](C)c1ccccc1 [IT042] is > 7.30

Value of pEC50 reported for the compound C[C@@H](OC(=O)Nc1c(C#Cc2nc3sc(C4(C(=O)O)CC4)cc3s2)cnn1C)c1ccccc1 [IT095] is > 7.30

Value of pEC50 reported for the compound Cc1noc(-c2ccc(-c3ccc(C4(C(=O)O)CC4)cc3)cc2)c1NC(=O)O[C@H]1CCCc2ccccc21 (single isomer, unassigned) [IT058] is < 6.30

###

# measured-target: Human LPA1 (Homo sapiens, UniProt Q92633)
# Sequence (Q92633 whole entry): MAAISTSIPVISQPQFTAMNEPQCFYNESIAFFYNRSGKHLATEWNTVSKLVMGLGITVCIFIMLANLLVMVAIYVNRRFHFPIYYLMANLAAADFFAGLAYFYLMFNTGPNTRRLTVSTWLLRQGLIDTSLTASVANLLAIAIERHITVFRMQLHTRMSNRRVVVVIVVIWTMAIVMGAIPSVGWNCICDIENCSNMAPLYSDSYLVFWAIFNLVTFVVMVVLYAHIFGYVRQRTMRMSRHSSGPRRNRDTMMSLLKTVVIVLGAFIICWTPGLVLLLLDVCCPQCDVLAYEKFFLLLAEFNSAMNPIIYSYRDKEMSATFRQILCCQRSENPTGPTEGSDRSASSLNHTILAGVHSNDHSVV
# run-description: LPA1 calcium flux assay
# condition-summary: human LPA1 expressing CHO cells, stimulated with 10 nM LPA; read-out: Ca Flux LPA1 IC50
parameter-measured: IC50

Solved entries (count: 8):
C[C@@H](OC(=O)Nc1c(C#Cc2ccc3cc(C4(C(=O)O)CC4)ccc3c2)sc2ncccc12)c1ccccc1	> 500 nM
Cc1noc(-c2cc(F)c(-c3ccc(C4(C(=O)O)CCOCC4)cc3)cc2F)c1NC(=O)O[C@H](C)c1ccccc1 [IT030]	> 500 nM
CNC(=O)N1CCn2c(nc(-c3ccc(-c4ccc(C5(C(=O)O)CC5)cc4)cc3)c2NC(=O)O[C@H](C)c2ccccc2)C1	> 500 nM
C[C@@H](OC(=O)Nc1c(C#Cc2ccc3cc(C4(C(=O)O)CC4)ccc3c2)cnn1C)c1ccccc1	< 50 nM
C[C@@H](OC(=O)Nc1c(C#Cc2ccc3cc(C4(C(=O)O)CC4)ccc3c2)nnn1C)c1ccccc1	< 50 nM
Cc1nnn(-c2cc(F)c(-c3cc4sc(C5(C(=O)O)CC5)cc4s3)cc2F)c1NC(=O)O[C@H](C)c1ccccc1	50 to 500 nM
Cc1noc(C#Cc2cc3sc(C4(C(=O)O)CC4)cc3s2)c1NC(=O)OCc1ccccc1	< 50 nM
C[C@@H](OC(=O)Nc1c(-c2cc(F)c(-c3ccc(C4(C(=O)O)CC4)cc3)cc2F)nn2ncccc12)c1ccccc1	< 50 nM

Value of IC50 reported for the compound Cc1nsc(C#Cc2cc3sc(C4(C(=O)O)CC4)cc3s2)c1NC(=O)O[C@H](C)c1ccccc1 is 50 to 500 nM

Value of IC50 reported for the compound Cc1noc(-c2ccc(-c3ccc(C4(C(=O)O)CCOCC4)cc3)c(F)c2)c1NC(=O)O[C@H](C)c1ccccc1 is < 50 nM

Value of IC50 reported for the compound C[C@@H](OC(=O)Nc1c(C#Cc2cc3sc(C4(C(=O)O)CC4)cc3s2)nn2ccccc12)c1ccccc1 is < 50 nM

Value of IC50 reported for the compound C[C@@H](OC(=O)Nc1c(-c2ccc(-c3ccc(C4(C(=O)O)CC4)cc3)cc2)nc2cnccn12)c1ccccc1 is 50 to 500 nM

Value of IC50 reported for the compound C[C@@H](OC(=O)Nc1c(-c2ccc(C#CC3(C(=O)O)CC3)cc2)cnn1C)c1ccccc1 is > 500 nM

Value of IC50 reported for the compound CCn1ncc(C#Cc2cc3sc(C4(C(=O)O)CC4)cc3s2)c1NC(=O)O[C@H](C)c1ccccc1 is < 50 nM

Value of IC50 reported for the compound Cc1noc(-c2cc(F)c(-c3ccc(C4(C(=O)O)CCOCC4)cc3)cc2F)c1NC(=O)O[C@H](C)c1ccccc1 [IT029] is 50 to 500 nM

Numbers sourced from patent US20140200215A1.
